tested on: IL-23, THP1 cells; test: IL-23 assay, THP1 cells primed with IFNg, LPS stimulated, ELISA; type: cell-based; conditions: Homo sapiens, THP-1; read-out: IL23 (LPS induced) IC50
Endpoint: IC50 (nM)

1: NC(=O)[C@@H]1[C@H](Nc2nc(Nc3cccc(C(=O)N4CCCC4)c3)ncc2-c2ccccc2F)[C@H]2C=C[C@@H]1C2 [Compound 10]
2: Cc1cnc(Nc2cccc(C(=O)N3CCCC3)c2)nc1N[C@H]1[C@@H](C(N)=O)[C@@H]2C=C[C@H]1C2 [Compound 5]
Which of the two gives a bigger number for IC50: 1 or 2 ? Response format: the label of the selected entry.
1

I: N#Cc1ccc(-c2cnc(Nc3cccc(C(=O)N4CCCC4)c3)nc2N[C@H]2[C@@H](C(N)=O)[C@@H]3C=C[C@H]2C3)cc1 [Compound 14]
II: NC(=O)[C@@H]1[C@H](Nc2nc(Nc3cccc(C(=O)N4CCCC4)c3)ncc2C2CC2)[C@H]2C=C[C@@H]1C2 [Compound 6]
III: NC(=O)[C@@H]1[C@H](Nc2nc(Nc3cccc(C(=O)N4CCCC4)c3)ncc2-c2ccncc2)[C@H]2C=C[C@@H]1C2 [Compound 9]
IV: NC(=O)[C@@H]1[C@H](Nc2nc(Nc3cccc(C(=O)N4CCCC4)c3)ncc2-c2ccc(F)cc2)[C@H]2C=C[C@@H]1C2 [Compound 12]
V: N#Cc1cccc(-c2cnc(Nc3cccc(C(=O)N4CCCC4)c3)nc2N[C@H]2[C@@H](C#N)[C@@H]3C=C[C@H]2C3)c1 [Compound 18]
Arrange the 5 entries by IC50 so the values rise. Answer by listing the labels in the order asked for.
II, III, I, IV, V
(II: 90 nM, III: 130 nM, I: 190 nM, IV: 460 nM, V: 3400 nM)
